System: NCI/ADR-RES ovarian
Assay: NCI-60 one-dose screen, 48 h (100 = growth as untreated, 0 = no growth, -100 = all killed)
Settings: 10 µM unless noted
About 83,000 compounds went through this panel and 20% of them were active in at least one assay; those are over-represented in the sample as a whole. Activity calls are given as the source filed them. How the source made its calls: active means growth percent below 10; inactive means the rest.
# maps each entry to its growth

# value lookup — system NCI/ADR-RES ovarian, readout growth, item NC(=S)N/N=C(\c1ccc(Cl)cc1)C1CC1
67.3% (inactive)

Let us now turn to CCCCN(CCCC)CCc1c(C)cc(C)c(CCN(CCCC)CCCC)c1O
75.7% (inactive)

Let us now turn to COc1ccc(-c2nc(SC(C)C)nc(NNC(N)=O)c2C#N)cc1
70.7% (inactive)

Let us now turn to O=C1Nc2c(ccc(Cl)c2Cl)/C1=C/c1ccc([N+](=O)[O-])cc1
93.9% (inactive)

This collection of values is drawn from PubChem BioAssay (NCI).
